- System: Vero
- measurement-protocol: Virus rating was determined by comparing cytopathic effect against vero cells after infection with Vaccinia virus
- Type: functional, Chlorocebus sabaeus

{"molecule": "Nc1nn(C2O[C@H](CO)[C@@H](O)[C@H]2O)c2nc[nH]c(=O)c12 (some centres not stated)", "Virus rating": 0.45}
{"molecule": "O=Nn1c(=O)c2c(O)ncnc2n1C1O[C@H](CO)[C@@H](O)[C@H]1O (some centres not stated)", "Virus rating": 0.8}
{"molecule": "NC(=O)c1nn(C2O[C@H](CO)[C@@H](O)[C@H]2O)c2nc[nH]c(=O)c12 (some centres not stated)", "Virus rating": 0.4}
{"molecule": "N#Cc1nn(C2O[C@H](CO)[C@@H](O)[C@H]2O)c2ncnc(S)c12 (some centres not stated)", "Virus rating": 1.24}
{"molecule": "CSc1nn(C2O[C@H](CO)[C@@H](O)[C@H]2O)c2nc[nH]c(=O)c12 (some centres not stated)", "Virus rating": 0}
{"molecule": "Cl.N=C(N)c1nn(C2O[C@H](CO)[C@H](O)[C@@H]2O)c2ncnc(O)c12 (some centres not stated)", "Virus rating": 0.31}
{"molecule": "CNc1nn(C2O[C@H](CO)[C@@H](O)[C@H]2O)c2nc[nH]c(=O)c12 (some centres not stated)", "Virus rating": 0.2}
{"molecule": "N=C(NO)c1nn(C2O[C@H](CO)[C@@H](O)[C@H]2O)c2nc[nH]c(=O)c12 (some centres not stated)", "Virus rating": 0.12}
{"molecule": "NC(=S)c1nn(C2O[C@H](CO)[C@@H](O)[C@H]2O)c2nc[nH]c(=O)c12 (some centres not stated)", "Virus rating": 0.4}
{"molecule": "N#Cc1nn(C2O[C@H](CO)[C@@H](O)[C@H]2O)c2nc[nH]c(=O)c12 (some centres not stated)", "Virus rating": 0.55}
{"molecule": "Nc1ncnc2c1c(Br)nn2C1O[C@H](CO)[C@@H](O)[C@H]1O (some centres not stated)", "Virus rating": 0.1}
{"molecule": "Nc1ncnc2c1c(N)nn2C1O[C@H](CO)[C@@H](O)[C@H]1O (some centres not stated)", "Virus rating": 0.4}
